# Tested on: Human monocytic lymphoma (U937) cells
# Type: cell-based
result.type: U937 cells permeabilized (PI-positive)

HXL001: Class I plant defensin from Zea mays, SEQ ID NO: 4 (RHCLSQSHRFKGLCMSSNNCANVCQTENFPGGECKAEGATRKCFCKKIC; HXL001 Zea mays)
less than 2%
HXL002: Class I plant defensin from Triticum aestivum, SEQ ID NO: 5 (RDCLSQSHKFKGACLSSSNCAAVCRTENFPDGECHTHNFARKCFCKRAC; HXL002 Triticum aestivum)
less than 2%
HXL008: Class I plant defensin from Picramnia pentandra, SEQ ID NO: 1 (KVCTKPSKFFKGLCGTDGACTTACRKEGLHSGYCQLKGFLNSVCVCRKHC; HXL008 Picramnia pentandra)
less than 2%

* * *

# Test system: Human monocytic lymphoma (U937) cells
# Type: cell-based
result.type: U937 cells permeabilized (PI-positive)

NaD1: Solanaceous Class II plant defensin from Nicotiana alata, SEQ ID NO: 18 (RECKTESNTFPGICITKPPCRKACISEKFTDGHCSKILRRCLCTKPC; NaD1 Nicotiana alata) [reference compound]
33%
HXL009: Class I plant defensin from Zea mays, SEQ ID NO: 9 (TVCMRHNNFYHGPCMSNKDCANSCVQHNLGVGGYCRGKIPFNKECMCTFEC; HXL009 Zea mays)
less than 2%
HXL012: Class I plant defensin from Amaranthus retroflexus, SEQ ID NO: 10 (RMCKAPSKLFRGMCGIRDSNCDSVCRAEGMAAGDCHGLRRRCICSRPC; HXL012 Amaranthus retroflexus)
less than 2%
